target: CAIX (Homo sapiens); test: Competitive fluorescence polarization assay for [Al19F]XYIMSR-04, [63/65Cu]XYIMSR-06 and [175Lu]XYIMSR-01; type: binding; parameters: purchased R&D Systems; details: 100 nM CAIX, 80 nM FITC-labeled ligand; read-out: IC50, competitive fluorescence polarization (similar method)
PARAMETER: IC50

The examples below pair each entry with its known result.
>>> recorded_measurement("CC(CCC(=O)N[C@@H](CC(=O)N[C@@H](CC(=O)N[C@@H](CCCCn1cc(CCCC(=O)Nc2nnc(S(N)(=O)=O)s2)nn1)C(=O)NCCOCCOCCN)C(=O)O)C(=O)O)(c1ccc(O)cc1)c1ccc(O)cc1 [compound 3, reference compound]")
"0.0636 µM"
>>> recorded_measurement("CC(CCC(=O)N[C@@H](CC(=O)N[C@@H](CC(=O)N[C@@H](CCCCn1cc(CCCC(=O)Nc2nnc(S(N)(=O)=O)s2)nn1)C(=O)NCCOCCOCCNC(=O)CN1CCN2CCN(CC1)CC(=O)[O][Al]([F])[O]C(=O)C2)C(=O)O)C(=O)O)(c1ccc(O)cc1)c1ccc(O)cc1 [[Al^19F]XYIMSR-04]")
"0.0967 µM"
>>> recorded_measurement("CC(CCC(=O)N[C@@H](CC(=O)N[C@@H](CC(=O)N[C@@H](CCCCn1cc(CCCC(=O)Nc2nnc(S(N)(=O)=O)s2)nn1)C(=O)NCCOCCOCCNC(=S)Nc1ccc(CC2CN(CC(=O)O)CCN(CC(=O)O)CCN2CC(=O)O)cc1)C(=O)O)C(=O)O)(c1ccc(O)cc1)c1ccc(O)cc1.[Cu] (stereo partly shown) [[^63/65Cu]XYIMSR-06]")
"0.157 µM"

Give IC50 (CAIX (Homo sapiens)) of the following compound: CC(CCC(=O)N[C@@H](CC(=O)N[C@@H](CC(=O)N[C@@H](CCCCn1cc(CCCC(=O)Nc2nnc(S(N)(=O)=O)s2)nn1)C(=O)NCCOCCOCCNC(=O)CN1CCN(CC(=O)O)CCN(CC(=O)O)CCN(CC(=O)O)CC1)C(=O)O)C(=O)O)(c1ccc(O)cc1)c1ccc(O)cc1.[Lu] [[^175Lu]XYIMSR-01]
0.122 µM
